Source listed as ChEMBL document CHEMBL5724914.

# Reported Conditions: human gut metagenome, 24 h, 2 µM; note: call rule not given here

[
  {
    "Structure As Smiles": "N#Cc1ccc(C(c2ccc(C#N)cc2)n2cncn2)cc1",
    "Bacterial Biotransformation": "Compound NOT metabolized"
  },
  {
    "Structure As Smiles": "CNC(=C[N+](=O)[O-])NCCSCc1csc(CN(C)C)n1",
    "Bacterial Biotransformation": "Compound NOT metabolized"
  },
  {
    "Structure As Smiles": "OC(Cn1cncn1)(Cn1cncn1)c1ccc(F)cc1F",
    "Bacterial Biotransformation": "Compound NOT metabolized"
  }
]

----------
# Reported Conditions: human gut metagenome, 24 h, 2 µM
Assay Metric: Bacterial Biotransformation

Here is how some compounds turned out for Bacterial Biotransformation.
[
  {
    "Compound": "CN(C)C(=O)C(CCN1CCC(O)(c2ccc(Cl)cc2)CC1)(c1ccccc1)c1ccccc1 [LOPERAMIDE]",
    "Assay Metric": "Bacterial Biotransformation",
    "Endpoint Result": "Compound metabolized"
  },
  {
    "Compound": "CC(O)(CS(=O)(=O)c1ccc(F)cc1)C(=O)Nc1ccc(C#N)c(C(F)(F)F)c1 (configuration not stated) [BICALUTAMIDE]",
    "Assay Metric": "Bacterial Biotransformation",
    "Endpoint Result": "Compound NOT metabolized"
  },
  {
    "Compound": "CC(C)NCC(O)c1ccc(NS(C)(=O)=O)cc1 (configuration not stated)",
    "Assay Metric": "Bacterial Biotransformation",
    "Endpoint Result": "Compound NOT metabolized"
  },
  {
    "Compound": "CCCc1nn(C)c2c(=O)[nH]c(-c3cc(S(=O)(=O)N4CCN(C)CC4)ccc3OCC)nc12.O=C(O)CC(O)(CC(=O)O)C(=O)O [SILDENAFIL CITRATE]",
    "Assay Metric": "Bacterial Biotransformation",
    "Endpoint Result": "Compound NOT metabolized"
  },
  {
    "Compound": "CCC(COC(=O)c1cc(OC)c(OC)c(OC)c1)(c1ccccc1)N(C)C.O=C(O)/C=C\\C(=O)O (configuration not stated)",
    "Assay Metric": "Bacterial Biotransformation",
    "Endpoint Result": "Compound NOT metabolized"
  }
]

Prompt: Sample `Clc1ccc(Cn2c(CN3CCCC3)nc3ccccc32)cc1` — what was its Bacterial Biotransformation?
Completion: Compound metabolized

Prompt: Could you tell me which Bacterial Biotransformation is on file for O=C(Nc1ccccc1)OCC(CN1CCCCC1)OC(=O)Nc1ccccc1 (configuration not stated) ?
Completion: Compound NOT metabolized

Prompt: Recorded Bacterial Biotransformation for `Fc1ccc([C@@H]2CCNC[C@H]2COc2ccc3c(c2)OCO3)cc1` , please?
Completion: Compound NOT metabolized

Prompt: Entry `COC(=O)Nc1nc2ccc(C(=O)c3ccccc3)cc2[nH]1` has what Bacterial Biotransformation?
Completion: Compound metabolized

Prompt: Report Bacterial Biotransformation for `CC(C)c1nc(CN(C)C(=O)N[C@H](C(=O)N[C@@H](Cc2ccccc2)C[C@H](O)[C@H](Cc2ccccc2)NC(=O)OCc2cncs2)C(C)C)cs1` please.
Completion: Compound NOT metabolized

----------
# Protocol: The drug is tested on WLS-240 corresponding to human gut metagenome with ENA study accession number: PRJEB37062 and ENA sample accession number: ERS12561773 for biotransformation under anaerobic condition. The drug concentrations were measured over 9 timepoints collected between 0 and 24 hours of incubation by liquid-chromatography-coupled mass spectrometry (LC–MS)
# Reported Conditions: 2 µM
Assay Metric: Bacterial Biotransformation

[
  {
    "Compound": "Nc1ccc(/N=N/c2ccccc2)c(N)n1",
    "Bacterial Biotransformation": "Compound metabolized"
  },
  {
    "Compound": "CNC(=C[N+](=O)[O-])NCCSCc1ccc(CN(C)C)o1",
    "Bacterial Biotransformation": "Compound NOT metabolized"
  },
  {
    "Compound": "CN1C[C@H](C(=O)N[C@]2(C)O[C@@]3(O)[C@@H]4CCCN4C(=O)[C@H](Cc4ccccc4)N3C2=O)C=C2c3cccc4[nH]cc(c34)C[C@H]21.CN1C[C@H](C(=O)N[C@]2(C)O[C@@]3(O)[C@@H]4CCCN4C(=O)[C@H](Cc4ccccc4)N3C2=O)C=C2c3cccc4[nH]cc(c34)C[C@H]21.O=C(O)C(O)C(O)C(=O)O [ERGOTAMINE TARTRATE]",
    "Bacterial Biotransformation": "Compound metabolized"
  },
  {
    "Compound": "Cc1ccc(-c2cc(C(F)(F)F)nn2-c2ccc(S(N)(=O)=O)cc2)cc1",
    "Bacterial Biotransformation": "Compound metabolized"
  },
  {
    "Compound": "Fc1ccc([C@@H]2CCNC[C@H]2COc2ccc3c(c2)OCO3)cc1",
    "Bacterial Biotransformation": "Compound metabolized"
  }
]

Prompt: Query: Bacterial Biotransformation; subject: CCC(COC(=O)c1cc(OC)c(OC)c(OC)c1)(c1ccccc1)N(C)C.O=C(O)/C=C\C(=O)O (configuration not stated)
Completion: Compound metabolized

Prompt: # lookup: Bacterial Biotransformation of CN(C)CC(c1ccc(O)cc1)C1(O)CCCCC1.O=C(O)CCC(=O)O (configuration not stated) [DESVENLAFAXINE SUCCINATE]
Completion: Compound NOT metabolized

----------
# Reported Conditions: human gut metagenome, 24 h, 2 µM
Assay Metric: Bacterial Biotransformation

Here is how some molecules turned out for Bacterial Biotransformation.
[
  {
    "Molecule": "CN(C)CCc1c[nH]c2ccc(Cn3cncn3)cc12.O=C(O)c1ccccc1 [RIZATRIPTAN BENZOATE]",
    "Assay Metric": "Bacterial Biotransformation",
    "Endpoint Result": "Compound NOT metabolized"
  },
  {
    "Molecule": "Cc1ccccc1N1C(=O)c2cc(S(N)(=O)=O)c(Cl)cc2NC1C (centres undefined)",
    "Assay Metric": "Bacterial Biotransformation",
    "Endpoint Result": "Compound NOT metabolized"
  },
  {
    "Molecule": "CC(CN1c2ccccc2Sc2ccccc21)N(C)C (centres undefined)",
    "Assay Metric": "Bacterial Biotransformation",
    "Endpoint Result": "Compound metabolized"
  },
  {
    "Molecule": "NC12CC3CC(CC(C3)C1)C2",
    "Assay Metric": "Bacterial Biotransformation",
    "Endpoint Result": "Compound NOT metabolized"
  },
  {
    "Molecule": "COCCc1ccc(OCC(O)CNC(C)C)cc1.COCCc1ccc(OCC(O)CNC(C)C)cc1.O=C(O)C(O)C(O)C(=O)O (centres undefined) [METOPROLOL TARTRATE]",
    "Assay Metric": "Bacterial Biotransformation",
    "Endpoint Result": "Compound NOT metabolized"
  }
]

Kindly consider the entry below.
Prompt: Which value of Bacterial Biotransformation has been reported for NC(CO)(CO)CO.O=C(c1ccccc1)c1ccc2n1CCC2C(=O)O (centres undefined) in the records?
Completion: Compound metabolized

----------
# Protocol: The drug is tested on WLS-010 corresponding to human gut metagenome with ENA study accession number: PRJEB37062 and ENA sample accession number: ERS12561743 for biotransformation under anaerobic condition. The drug concentrations were measured over 9 timepoints collected between 0 and 24 hours of incubation by liquid-chromatography-coupled mass spectrometry (LC–MS)
# Reported Conditions: 2 µM
Assay Metric: Bacterial Biotransformation

[
  {
    "Molecule": "CNC(=C[N+](=O)[O-])NCCSCc1ccc(CN(C)C)o1",
    "Endpoint Result": "Compound NOT metabolized"
  },
  {
    "Molecule": "Clc1ccc(Cn2c(CN3CCCC3)nc3ccccc32)cc1",
    "Endpoint Result": "Compound NOT metabolized"
  },
  {
    "Molecule": "COc1ccccc1OCC(O)COC(N)=O (centres undefined)",
    "Endpoint Result": "Compound NOT metabolized"
  },
  {
    "Molecule": "CO[C@]12C[C@@H](COC(=O)c3cncc(Br)c3)CN(C)[C@@H]1Cc1cn(C)c3cccc2c13",
    "Endpoint Result": "Compound metabolized"
  },
  {
    "Molecule": "COc1cc2c(c(OC)c1OC)-c1ccc(OC)c(=O)cc1[C@@H](NC(C)=O)CC2",
    "Endpoint Result": "Compound metabolized"
  },
  {
    "Molecule": "Nc1c2c(nc3ccccc13)CCCC2",
    "Endpoint Result": "Compound NOT metabolized"
  }
]

Prompt: Need Bacterial Biotransformation of CNCCC(Oc1ccc(C(F)(F)F)cc1)c1ccccc1 (centres undefined) , thanks.
Completion: Compound NOT metabolized

Prompt: Name the recorded Bacterial Biotransformation for `CN(C(=O)CN(CCO)CC(=O)N(C)C(C)(C)Cc1ccccc1)C(C)(C)Cc1ccccc1` .
Completion: Compound metabolized

Prompt: Could you share which Bacterial Biotransformation value was measured for `CN1CCN(CC/C=C2/c3ccccc3Sc3ccc(S(=O)(=O)N(C)C)cc32)CC1` ?
Completion: Compound metabolized

----------
# Protocol: The drug is tested on WLS-220 corresponding to human gut metagenome with ENA study accession number: PRJEB37062 and ENA sample accession number: ERS12561769 for biotransformation under anaerobic condition. The drug concentrations were measured over 9 timepoints collected between 0 and 24 hours of incubation by liquid-chromatography-coupled mass spectrometry (LC–MS)
# Reported Conditions: 2 µM
Assay Metric: Bacterial Biotransformation

Reference set, count: 6
[
  {
    "Molecule": "CN1CCC(=C2c3ccccc3CCc3cccnc32)CC1.O=C(O)/C=C\\C(=O)O.O=C(O)/C=C\\C(=O)O [AZATADINE MALEATE]",
    "Assay Metric": "Bacterial Biotransformation",
    "Endpoint Result": "Compound NOT metabolized"
  },
  {
    "Molecule": "CCCC1O[C@@H]2C[C@H]3[C@@H]4CCC5=CC(=O)C=C[C@]5(C)[C@H]4[C@@H](O)C[C@]3(C)[C@]2(C(=O)CO)O1 (some centres not stated) [BUDESONIDE]",
    "Assay Metric": "Bacterial Biotransformation",
    "Endpoint Result": "Compound metabolized"
  },
  {
    "Molecule": "O=C(CCCN1CCC(O)(c2ccc(Cl)cc2)CC1)c1ccc(F)cc1 [HALOPERIDOL]",
    "Assay Metric": "Bacterial Biotransformation",
    "Endpoint Result": "Compound metabolized"
  },
  {
    "Molecule": "CC(=O)OCC(=O)[C@@]12N=C(C)O[C@@H]1C[C@H]1[C@@H]3CCC4=CC(=O)C=C[C@]4(C)[C@H]3[C@@H](O)C[C@@]12C [DEFLAZACORT]",
    "Assay Metric": "Bacterial Biotransformation",
    "Endpoint Result": "Compound metabolized"
  },
  {
    "Molecule": "CC(C)OC(=O)C(C)(C)Oc1ccc(C(=O)c2ccc(Cl)cc2)cc1 [FENOFIBRATE]",
    "Assay Metric": "Bacterial Biotransformation",
    "Endpoint Result": "Compound metabolized"
  },
  {
    "Molecule": "CCc1nn(CCCN2CCN(c3cccc(Cl)c3)CC2)c(=O)n1CCOc1ccccc1 [NEFAZODONE]",
    "Assay Metric": "Bacterial Biotransformation",
    "Endpoint Result": "Compound metabolized"
  }
]

Prompt: Query (molecule): CCCCC1=NC2(CCCC2)C(=O)N1Cc1ccc(-c2ccccc2-c2nnn[nH]2)cc1 [IRBESARTAN] ; field requested: Bacterial Biotransformation
Completion: Compound metabolized

Prompt: Requested read-out: Bacterial Biotransformation. Entry: COC(=O)C1=C(C)NC(C)=C(C(=O)OC(C)C)C1c1cccc2nonc12 (configuration not stated) [ISRADIPINE]
Completion: Compound metabolized

Prompt: Requested read-out: Bacterial Biotransformation. Entry: Nc1ccc(/N=N/c2ccccc2)c(N)n1 [PHENAZOPYRIDINE]
Completion: Compound metabolized

Prompt: Can you share its Bacterial Biotransformation? I mean this molecule: O=c1[nH]c2ccccc2n1C1CCN(CCCC(c2ccc(F)cc2)c2ccc(F)cc2)CC1 [PIMOZIDE]
Completion: Compound metabolized

Prompt: Looking for the measured Bacterial Biotransformation of COC(=O)Nc1nc2ccc(C(=O)c3ccccc3)cc2[nH]1 [MEBENDAZOLE] , can you help?
Completion: Compound metabolized

Prompt: // returns reported Bacterial Biotransformation for input CC(=O)CC(c1ccccc1)c1c(O)c2ccccc2oc1=O (configuration not stated) [WARFARIN]
Completion: Compound metabolized

Prompt: Query: Bacterial Biotransformation; subject: COc1cc2nc(N(C)CCCNC(=O)C3CCCO3)nc(N)c2cc1OC (configuration not stated) [ALFUZOSIN]
Completion: Compound metabolized

Prompt: Fill in the blank: the reported Bacterial Biotransformation of CCC1(c2ccc(N)cc2)CCC(=O)NC1=O (configuration not stated) [AMINOGLUTETHIMIDE] is ____.
Completion: Compound NOT metabolized

Prompt: Which Bacterial Biotransformation is listed for OC(CCN1CCCCC1)(c1ccccc1)C1CC2C=CC1C2 (configuration not stated) [BIPERIDEN] ?
Completion: Compound NOT metabolized

Prompt: Can you look up the measured Bacterial Biotransformation of CN1C(C(=O)Nc2ccccn2)=C(O)c2sccc2S1(=O)=O [TENOXICAM] for me?
Completion: Compound NOT metabolized

Prompt: Record request: Bacterial Biotransformation value, item Br.CN(C)CCCC1(c2ccc(F)cc2)OCc2cc(C#N)ccc21 (configuration not stated) [CITALOPRAM HYDROBROMIDE]
Completion: Compound NOT metabolized
